- test: Half life in Sprague-Dawley rat at 2 mg/kg, po administered as gastric bolus by LC/MS/MS analysis
- Assay type: ADME, organism-based
- condition.description: in vivo
endpoint.name: half-life (h)
Only the number, expressed in h, is required.

Note to self: half-life recorded for CNS(=O)(=O)c1ccc(N(C)C)c(Nc2ncnc3cc(OC)c(OC)cc23)c1 was 3.6

* * *

- Tested on: Rattus norvegicus
- test: Dose normalized AUC in Sprague-Dawley rat at 2 mg/kg, po administered as gastric bolus by LC/MS/MS analysis
- Format: ADME, organism-based
- condition.description: in vivo
endpoint.name: AUC/dose (kg·h/L)
The answer is to be given in kg·h/L; state only the numeric part.

AUC/dose reported for this molecule CNS(=O)(=O)c1ccc(N(C)C)c(Nc2ncnc3cc[nH]c23)c1 : 0.01

Sure, the documented AUC/dose for CNS(=O)(=O)c1ccc(N(C)C)c(Nc2ncnc3cc(OCCCOC)ccc23)c1 is 0.03

Data point: CNS(=O)(=O)c1ccc(OCC(F)(F)F)c(Nc2ncnc3cc(OC)cc(OC)c23)c1 ; AUC/dose = 1.4

Reported AUC/dose of CNS(=O)(=O)c1ccc(N(C)C)c(Nc2ncnc3cc(OC)c(OC)cc23)c1 : 0.18

* * *

- tgt: Serine/threonine-protein kinase TNNI3K (Homo sapiens, UniProt Q59H18)
- Sequence (Q59H18 whole entry): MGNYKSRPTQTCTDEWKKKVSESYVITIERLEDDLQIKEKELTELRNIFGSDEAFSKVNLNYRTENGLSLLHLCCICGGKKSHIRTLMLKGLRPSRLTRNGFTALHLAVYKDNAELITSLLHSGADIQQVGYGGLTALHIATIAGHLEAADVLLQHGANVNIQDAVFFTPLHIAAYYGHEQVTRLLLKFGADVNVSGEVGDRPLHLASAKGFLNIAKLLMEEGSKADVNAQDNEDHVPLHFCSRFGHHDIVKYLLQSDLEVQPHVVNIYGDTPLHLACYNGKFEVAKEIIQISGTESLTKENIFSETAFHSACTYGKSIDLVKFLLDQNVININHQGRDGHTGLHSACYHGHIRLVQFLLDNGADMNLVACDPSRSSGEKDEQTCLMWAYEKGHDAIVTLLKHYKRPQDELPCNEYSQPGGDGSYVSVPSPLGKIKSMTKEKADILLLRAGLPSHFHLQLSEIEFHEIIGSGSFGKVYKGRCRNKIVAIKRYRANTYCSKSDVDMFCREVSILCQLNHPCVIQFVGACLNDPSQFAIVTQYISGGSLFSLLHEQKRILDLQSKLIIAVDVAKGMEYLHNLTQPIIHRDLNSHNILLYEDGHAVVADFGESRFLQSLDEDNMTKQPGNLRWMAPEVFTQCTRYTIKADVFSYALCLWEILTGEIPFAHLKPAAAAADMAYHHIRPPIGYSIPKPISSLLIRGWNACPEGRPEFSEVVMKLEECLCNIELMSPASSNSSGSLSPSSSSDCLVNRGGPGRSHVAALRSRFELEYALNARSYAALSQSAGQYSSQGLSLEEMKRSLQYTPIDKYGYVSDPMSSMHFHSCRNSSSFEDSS
- test: Displacement of 5-({[2-({[3-({4-[(5-hydroxy-2-methylphenyl)amino]-2-pyrimidinyl}amino)phenyl]carbonyl}amino)-ethyl]amino}carbonyl)-2-(6-hydroxy-3-oxo-3H-xanthen-9-yl)benzoic acid from full length human TNNI3K expressed in baculovirus system incubated for 60 mins by fluorescence polarization assay
IC50 under 30 nM gets met, anything at or over 30 nM gets not met.

IC50 under 30 nM? Item: CNS(=O)(=O)c1ccc(N(C)C)c(Nc2ncnc3cc(OC)cc(OC)c23)c1 met

API: query returns whether the compound falls strictly under 30 nM in IC50. Query: CNS(=O)(=O)c1ccc(OCC(F)(F)F)c(Nc2ncnc3cc(OC)cc(OC)c23)c1 met

Strictly below 30 nM in IC50? CNS(=O)(=O)c1ccc(N(C)C)c(Nc2ncnc3ccn(C)c23)c1 met

I'd appreciate it if you could check whether CNS(=O)(=O)c1ccc(N(C)C)c(Nc2ncnc3ccc(OC)cc23)c1 has IC50 smaller than 30 nM. not met

IC50 under 30 nM? Item: CNS(=O)(=O)c1ccc(OCC(F)(F)F)c(Nc2ncnc3cc(OC)c(OC)c(OC)c23)c1 met

Just wondering, is IC50 of CNS(=O)(=O)c1ccc(N(C)C)c(Nc2ncnc3cc(OC)c(OC)cc23)c1 below 30 nM? met

Say whether its IC50 is strictly beneath 30 nM. Entry: CNS(=O)(=O)c1ccc(N(C)C)c(Nc2ncnc3ccc(N)cc23)c1 not met

Determine if CNS(=O)(=O)c1ccc(OCC(F)(F)F)c(Nc2ncnc3cc(OC(C)C)c(OC)cc23)c1 shows IC50 strictly lower than 30 nM. not met

Given CNS(=O)(=O)c1ccc(N(C)C)c(Nc2ncnc3cc[nH]c23)c1 , is recorded IC50 strictly lower than 30 nM? met

Quick check: IC50 of CNS(=O)(=O)c1ccc(N2CCOCC2)c(Nc2ncnc3[nH]cc(Cl)c23)c1 under 30 nM? met

* * *

- tgt: Serine/threonine-protein kinase B-raf (Homo sapiens, UniProt P15056, V600E)
- Sequence (P15056 2-766 V600E limits assumed): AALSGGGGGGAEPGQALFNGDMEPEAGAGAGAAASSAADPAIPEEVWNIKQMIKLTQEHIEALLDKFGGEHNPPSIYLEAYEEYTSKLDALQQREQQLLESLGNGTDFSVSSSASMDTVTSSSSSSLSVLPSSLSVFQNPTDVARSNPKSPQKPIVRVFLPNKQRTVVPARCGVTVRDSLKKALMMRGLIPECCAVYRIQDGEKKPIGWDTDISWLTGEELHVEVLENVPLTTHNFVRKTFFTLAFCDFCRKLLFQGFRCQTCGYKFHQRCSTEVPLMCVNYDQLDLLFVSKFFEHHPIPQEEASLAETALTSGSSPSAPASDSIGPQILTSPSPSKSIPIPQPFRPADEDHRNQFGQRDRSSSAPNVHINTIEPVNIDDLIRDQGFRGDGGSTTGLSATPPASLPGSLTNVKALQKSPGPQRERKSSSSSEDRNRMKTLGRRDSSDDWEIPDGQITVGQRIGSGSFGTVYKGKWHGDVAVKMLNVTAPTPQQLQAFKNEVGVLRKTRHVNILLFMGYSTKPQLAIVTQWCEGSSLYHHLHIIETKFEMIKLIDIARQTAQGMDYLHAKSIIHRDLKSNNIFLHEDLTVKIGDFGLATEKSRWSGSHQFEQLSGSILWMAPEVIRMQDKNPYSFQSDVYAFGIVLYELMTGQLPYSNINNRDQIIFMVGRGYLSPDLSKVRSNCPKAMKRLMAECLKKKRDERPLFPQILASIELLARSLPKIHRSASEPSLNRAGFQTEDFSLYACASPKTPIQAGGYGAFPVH
- test: Inhibition of full-length His6-tagged BRAF V600E mutant (2 to 766 residues) (unknown origin) expressed in baculovirus system by B-Raf accelerated MEK ATPase assay
endpoint.name: pIC50
Scale note: pIC50 = -log10(concentration in M).

The reported pIC50 of the compound CNS(=O)(=O)c1ccc(N(C)C)c(Nc2ncnc3cc(OCCCN4CCOCC4)ccc23)c1 was 5.60

// recorded pIC50 for CNS(=O)(=O)c1ccc(OCC(F)(F)F)c(Nc2ncnc3cc(OCCCN4CCOCC4)ccc23)c1 : 5.89

// recorded pIC50 for CNS(=O)(=O)c1ccc(OCC(F)(F)F)c(Nc2ncnc3cc(OCCCOC)ccc23)c1 : 6.80

The value of pIC50 measured for the compound CNS(=O)(=O)c1ccc(N(C)C)c(Nc2ncnc3ccc(N)cc23)c1 turned out to be 6.20

Query CNS(=O)(=O)c1ccc(N(C)C)c(Nc2ncnc3ccn(C)c23)c1 yields pIC50 of 6.89

pIC50 measured on CNS(=O)(=O)c1ccc(N(C)C)c(Nc2ncnc3ccccc23)c1 = 6.60

Summary for this compound, CNS(=O)(=O)c1ccc(N(C)C)c(Nc2ncnc3cc(N)ccc23)c1 : pIC50 is 5.40

CNS(=O)(=O)c1ccc(OCC(F)(F)F)c(Nc2ncnc3cc(OC)c(OC)c(OC)c23)c1 yielded pIC50 of 7.10

Value of pIC50 reported for the compound CNc1ccc2ncnc(Nc3cc(S(=O)(=O)NC)ccc3N(C)C)c2c1 is 6.00

Record CNS(=O)(=O)c1ccc(N(C)C)c(Nc2ncnc3ccc(OC)cc23)c1 , field pIC50: 6.00

According to the records, this compound CNS(=O)(=O)c1ccc(OCC(F)(F)F)c(Nc2ncnc3cc(OC)c(OC)cc23)c1 displays pIC50 of 6.89

pIC50 reported for this compound CCOc1cc2ncnc(Nc3cc(S(=O)(=O)NC)ccc3OCC(F)(F)F)c2cc1OC : 7.00

Looking up CNS(=O)(=O)c1ccc(N2CCOCC2)c(Nc2ncnc3[nH]cc(Cl)c23)c1 , I see its pIC50 listed as 9.22

The compound listed as CNS(=O)(=O)c1ccc(N(C)C)c(Nc2ncnc3cc[nH]c23)c1 shows pIC50 equal to 6.60

For CNS(=O)(=O)c1ccc(OCC(F)(F)F)c(Nc2ncnc3cc(OC)cc(OC)c23)c1 the compound record lists pIC50 as 7.30

The reported value for CNc1ccc2c(Nc3cc(S(=O)(=O)NC)ccc3N(C)C)ncnc2c1 in terms of pIC50 is 5.00

Looking up CNS(=O)(=O)c1ccc(N(C)C)c(Nc2ncnc3cc(OC)c(OC)cc23)c1 , I found its pIC50 recorded as 6.00

Value of measured pIC50 for the entry CNS(=O)(=O)c1ccc(N(C)C)c(Nc2ncnc3cc(OCCCOC)ccc23)c1 : 6.10

get_value(item= CNS(=O)(=O)c1ccc(N(C)C)c(Nc2ncnc3cc(OC)cc(OC)c23)c1 , readout=pIC50) returns 7.10

Consider CNS(=O)(=O)c1ccc(OCC(F)(F)F)c(Nc2ncnc3cc(OC(C)C)c(OC)cc23)c1 . Its measured pIC50 is 4.49

Per the record, CNS(=O)(=O)c1ccc(N(C)C)c(Nc2ncnc3ccsc23)c1 has pIC50 of 6.00
